Ref: patent US20100152297A1

Tested on: human fibroblasts
EXPERIMENTAL_DETAILS: Regulation of growth rate: number of population doublings (PDs)
Type: cell-based
CONDITION_NOTES: PD 24 before treatment, celecoxib 1 μM, nimesulide 20 μM, aspirin 1 mM, ibuprofen 20 μM, flurbiprofen 5 μM
ASSAY_ENDPOINT: reduction of the maximum number of population doublings compared to DMSO (times)

> print(dat)
                                   compound  readout.unit  recorded.result
1  CC(C(=O)O)c1ccc(-c2ccccc2)c(F)c1 (stereo not shown)         times                4
2                     CC(=O)Oc1ccccc1C(=O)O         times                7
3  CC(C)Cc1ccc(C(C)C(=O)O)cc1 (stereo not shown)         times                5

---

Tested on: human fibroblasts
EXPERIMENTAL_DETAILS: Senescence-associated beta-galactosidase (SA-β-gal) staining
Type: cell-based
CONDITION_NOTES: celecoxib 1 μM, nimesulide 20 μM, aspirin 1 mM, ibuprofen 20 μM, flurbiprofen 5 μM
ASSAY_ENDPOINT: increase of the ratio of SA-β-gal positive cells compared to DMSO

> print(dat)
                                   compound  recorded.result
1  CC(C)Cc1ccc(C(C)C(=O)O)cc1 (stereo not shown)        1.7 times
2  CS(=O)(=O)Nc1ccc([N+](=O)[O-])cc1Oc1ccccc1 [nimesulide]        1.3 times
3                     CC(=O)Oc1ccccc1C(=O)O        1.9 times
4  CC(C(=O)O)c1ccc(-c2ccccc2)c(F)c1 (stereo not shown)        1.6 times
